Please respond with reported relative viability for every item in the list.
System: LCLC-103H
experiment notes: relative viability (nuclei count vs DMSO), 5 days (fraction); higher = more cells survive
details: first compound 0.0002 µM
The response must contain the number and no unit.

Problem: For the molecule shown here, CC(=O)O[C@@]12CO[C@@H]1C[C@H](O)[C@@]1(C)C(=O)[C@H](O)C3=C(C)[C@@H](OC(=O)[C@H](O)[C@@H](NC(=O)OC(C)(C)C)c4ccccc4)C[C@@](O)([C@@H](OC(=O)c4ccccc4)[C@H]21)C3(C)C [Docetaxel] + COc1cccc2cc(-c3nc([C@H]4CC[C@H](C(=O)O)CC4)n4ncnc(N)c34)[nH]c12 [OSI-027] (partner 0.5 µM) , give the reported relative viability.
Solution: 0.394

Problem: For the molecule shown here, CC(=O)O[C@@]12CO[C@@H]1C[C@H](O)[C@@]1(C)C(=O)[C@H](O)C3=C(C)[C@@H](OC(=O)[C@H](O)[C@@H](NC(=O)OC(C)(C)C)c4ccccc4)C[C@@](O)([C@@H](OC(=O)c4ccccc4)[C@H]21)C3(C)C [Docetaxel] + C[C@]1(O)C[C@@H](c2nc(-c3ccc4ccc(-c5ccccc5)nc4c3)c3c(N)nccn32)C1 [Linsitinib] (partner 1 µM) , give the reported relative viability.
Solution: 0.934

Problem: For the molecule shown here, CC(=O)O[C@@]12CO[C@@H]1C[C@H](O)[C@@]1(C)C(=O)[C@H](O)C3=C(C)[C@@H](OC(=O)[C@H](O)[C@@H](NC(=O)OC(C)(C)C)c4ccccc4)C[C@@](O)([C@@H](OC(=O)c4ccccc4)[C@H]21)C3(C)C [Docetaxel] + CC(=O)Nc1cccc(-n2c(=O)n(C3CC3)c(=O)c3c(Nc4ccc(I)cc4F)n(C)c(=O)c(C)c32)c1 [Trametinib] (partner 0.02 µM) , give the reported relative viability.
Solution: 0.675

---

System: NCI-H322M
experiment notes: relative viability (nuclei count vs DMSO), 5 days (fraction); higher = more cells survive
details: first compound 0.002 µM
Please respond with reported relative viability for every item in the list.
The response must contain the number and no unit.

Problem: For the compound shown here, CC(=O)O[C@@]12CO[C@@H]1C[C@H](O)[C@@]1(C)C(=O)[C@H](O)C3=C(C)[C@@H](OC(=O)[C@H](O)[C@@H](NC(=O)OC(C)(C)C)c4ccccc4)C[C@@](O)([C@@H](OC(=O)c4ccccc4)[C@H]21)C3(C)C [Docetaxel] + N=C(N)NC(=N)NCCc1ccccc1 [Phenformin] (partner 250 µM) , give the reported relative viability.
Solution: 0.656

Problem: For the compound shown here, CC(=O)O[C@@]12CO[C@@H]1C[C@H](O)[C@@]1(C)C(=O)[C@H](O)C3=C(C)[C@@H](OC(=O)[C@H](O)[C@@H](NC(=O)OC(C)(C)C)c4ccccc4)C[C@@](O)([C@@H](OC(=O)c4ccccc4)[C@H]21)C3(C)C [Docetaxel] + O=C(CCCCCCC(=O)Nc1ccccc1)NO [Vorinostat] (partner 1 µM) , give the reported relative viability.
Solution: 0.906

Problem: For the compound shown here, CC(=O)O[C@@]12CO[C@@H]1C[C@H](O)[C@@]1(C)C(=O)[C@H](O)C3=C(C)[C@@H](OC(=O)[C@H](O)[C@@H](NC(=O)OC(C)(C)C)c4ccccc4)C[C@@](O)([C@@H](OC(=O)c4ccccc4)[C@H]21)C3(C)C [Docetaxel] + C[C@@H](Oc1cc(-c2cnn(C3CCNCC3)c2)cnc1N)c1c(Cl)ccc(F)c1Cl [Crizotinib] (partner 1 µM) , give the reported relative viability.
Solution: 0.71

---

Test system: NCI-H23
experiment notes: relative viability (nuclei count vs DMSO), 5 days (fraction); higher = more cells survive
details: first compound 0.253 µM
Please respond with reported relative viability for every item in the list.

Problem: For the molecule shown here, O=c1[nH]c2ccccc2n1C1CCN(CCCC(c2ccc(F)cc2)c2ccc(F)cc2)CC1 [Pimozide] + CC(C)C[C@H](NC(=O)[C@H](Cc1ccccc1)NC(=O)c1cnccn1)B(O)O [Bortezomib] (partner 0.002 µM) , give the reported relative viability.
Solution: 1.04

Problem: For the molecule shown here, O=c1[nH]c2ccccc2n1C1CCN(CCCC(c2ccc(F)cc2)c2ccc(F)cc2)CC1 [Pimozide] + NC(=O)Nc1cc(-c2cccc(F)c2)sc1C(=O)N[C@H]1CCCNC1 [AZD7762] (partner 0.2 µM) , give the reported relative viability.
Solution: 0.315

Problem: For the molecule shown here, Cc1cnc(-c2cnc(NCCNc3ccc(C#N)cn3)nc2-c2ccc(Cl)cc2Cl)[nH]1 + C[C@@H](Oc1cc(-c2cnn(C3CCNCC3)c2)cnc1N)c1c(Cl)ccc(F)c1Cl [Crizotinib] (partner 1 µM) , give the reported relative viability.
Solution: 0.496

---

System: HARA
experiment notes: relative viability (nuclei count vs DMSO), 5 days (fraction); higher = more cells survive
details: first compound 0.5 µM
endpoint name: relative viability
The response must contain the number and no unit.

Problem: For the compound shown here, Nc1ccn([C@@H]2O[C@H](CO)[C@@H](O)[C@@H]2O)c(=O)n1 [Cytarabine] + Nc1nc2[nH]cc(CCc3ccc(C(=O)N[C@@H](CCC(=O)O)C(=O)O)cc3)c2c(=O)[nH]1 [Pemetrexed] (partner 0.2 µM) , give the reported relative viability.
Solution: 0.153

Problem: For the compound shown here, COc1cc2nccc(Oc3ccc(NC(=O)Nc4cc(C)on4)c(Cl)c3)c2cc1OC [Tivozanib] + CC(=O)c1c(C)c2cnc(Nc3ccc(N4CCNCC4)cn3)nc2n(C2CCCC2)c1=O [Palbociclib] (partner 0.5 µM) , give the reported relative viability.
Solution: 0.272

Problem: For the compound shown here, Nc1ccn([C@@H]2O[C@H](CO)[C@@H](O)[C@@H]2O)c(=O)n1 [Cytarabine] + COc1cccc2cc(-c3nc([C@H]4CC[C@H](C(=O)O)CC4)n4ncnc(N)c34)[nH]c12 [OSI-027] (partner 0.5 µM) , give the reported relative viability.
Solution: 0.101

Problem: For the compound shown here, Nc1ccn([C@@H]2O[C@H](CO)[C@@H](O)[C@@H]2O)c(=O)n1 [Cytarabine] + CC(=O)c1c(C)c2cnc(Nc3ccc(N4CCNCC4)cn3)nc2n(C2CCCC2)c1=O [Palbociclib] (partner 0.5 µM) , give the reported relative viability.
Solution: 0.163

---

Please respond with reported relative viability for every item in the list.
Tested on: LU99A
experiment notes: relative viability (nuclei count vs DMSO), 5 days (fraction); higher = more cells survive
details: first compound 5 µM
The response must contain the number and no unit.

Problem: Form: Entry = O=C(O)CCCCC(CCSCc1ccccc1)SCc1ccccc1 (centres undefined) [CPI-613] + CC1(C)CCC(c2ccc(Cl)cc2)=C(CN2CCN(c3ccc(C(=O)NS(=O)(=O)c4ccc(N[C@H](CCN5CCOCC5)CSc5ccccc5)c(S(=O)(=O)C(F)(F)F)c4)cc3)CC2)C1 [Navitoclax] (partner 0.5 µM) | System = LU99A | relative viability = ____
Solution: 0.631

Problem: Form: Entry = O=C(O)CCCCC(CCSCc1ccccc1)SCc1ccccc1 (centres undefined) [CPI-613] + CC(=O)c1c(C)c2cnc(Nc3ccc(N4CCNCC4)cn3)nc2n(C2CCCC2)c1=O [Palbociclib] (partner 0.5 µM) | System = LU99A | relative viability = ____
Solution: 0.383

Problem: Form: Entry = O=C(O)CCCCC(CCSCc1ccccc1)SCc1ccccc1 (centres undefined) [CPI-613] + C[C@@H](Oc1cc(-c2cnn(C3CCNCC3)c2)cnc1N)c1c(Cl)ccc(F)c1Cl [Crizotinib] (partner 1 µM) | System = LU99A | relative viability = ____
Solution: 0.618

Problem: Form: Entry = O=C(O)CCCCC(CCSCc1ccccc1)SCc1ccccc1 (centres undefined) [CPI-613] + CC(C)C[C@H](NC(=O)[C@H](Cc1ccccc1)NC(=O)c1cnccn1)B(O)O [Bortezomib] (partner 0.002 µM) | System = LU99A | relative viability = ____
Solution: 1.04

---

Tested on: COR-L23
experiment notes: relative viability (nuclei count vs DMSO), 5 days (fraction); higher = more cells survive
details: first compound 8 µM
Please respond with reported relative viability for every item in the list.

Problem: For the molecule shown here, O=c1[nH]c2ccccc2n1C1CCN(CCCC(c2ccc(F)cc2)c2ccc(F)cc2)CC1 [Pimozide] + Nc1ncn([C@H]2C[C@H](O)[C@@H](CO)O2)c(=O)n1 [Decitabine] (partner 2 µM) , give the reported relative viability.
Solution: 0.495

Problem: For the molecule shown here, O=c1[nH]c2ccccc2n1C1CCN(CCCC(c2ccc(F)cc2)c2ccc(F)cc2)CC1 [Pimozide] + CC1(C)CCC(c2ccc(Cl)cc2)=C(CN2CCN(c3ccc(C(=O)NS(=O)(=O)c4ccc(N[C@H](CCN5CCOCC5)CSc5ccccc5)c(S(=O)(=O)C(F)(F)F)c4)cc3)CC2)C1 [Navitoclax] (partner 0.5 µM) , give the reported relative viability.
Solution: 0.933

Problem: For the molecule shown here, O=c1[nH]c2ccccc2n1C1CCN(CCCC(c2ccc(F)cc2)c2ccc(F)cc2)CC1 [Pimozide] + Cc1nc(NC(=O)N2CCC[C@H]2C(N)=O)sc1-c1ccnc(C(C)(C)C(F)(F)F)c1 [Alpelisib] (partner 2 µM) , give the reported relative viability.
Solution: 0.695

Problem: For the molecule shown here, O=c1[nH]c2ccccc2n1C1CCN(CCCC(c2ccc(F)cc2)c2ccc(F)cc2)CC1 [Pimozide] + Cc1nc(Nc2ncc(C(=O)Nc3c(C)cccc3Cl)s2)cc(N2CCN(CCO)CC2)n1 [Dasatinib] (partner 0.075 µM) , give the reported relative viability.
Solution: 0.455

Problem: For the molecule shown here, O=c1[nH]c2ccccc2n1C1CCN(CCCC(c2ccc(F)cc2)c2ccc(F)cc2)CC1 [Pimozide] + CS(=O)(=O)N1CCN(Cc2cc3nc(-c4cccc5[nH]ncc45)nc(N4CCOCC4)c3s2)CC1 [Pictilisib] (partner 1 µM) , give the reported relative viability.
Solution: 0.632

Problem: For the molecule shown here, O=c1[nH]c2ccccc2n1C1CCN(CCCC(c2ccc(F)cc2)c2ccc(F)cc2)CC1 [Pimozide] + O=C(c1cc(Cc2n[nH]c(=O)c3ccccc23)ccc1F)N1CCN(C(=O)C2CC2)CC1 [Olaparib] (partner 8 µM) , give the reported relative viability.
Solution: 0.336
